TGT: T1, c-Met-Fc chimera protein (UniProt P08581 25-932, limits assumed)
T1 construct: Captured on the SPR chip by an anti-IgG antibody; not shown: Fc part
PROTOCOL_SUMMARY: SPR presumed (Biacore as in 9-1; method not given), c-Met-Fc on chip
Bridges are numbered along the chain shown (N, C = ends). Where no end group is shown, it is not given here. [ ]: non-standard residue; d: D form. NMeR = CN[C@@H](CCCNC(=N)N)C(=O)O; NMeC = CN[C@@H](CS)C(=O)O
Recorded Kd values for a group of binders are listed next.
Answer with a number only, understood to be in nM.

Examples with their reported Kd follow.
{CH2CO}-YRQFN[NMeR]RTHEVWNLDCG (thioether N-16) [D4-3-N6]; 34
{CH2CO}-YRQFN[NMeR]RTHEVWNLD[NMeC]G (thioether N-16, also called NMe (N6 + N16); N-methylated D4-3) [D4-3NMe]; 5.2
{CH2CO}-YRQFNRRTHEVWNLD[NMeC]G (thioether N-16 (inferred)) [N16, N-methylated D4-3 peptide]; 10

Now, please, on to the next binder.
Q. Any idea what Kd was measured for {CH2CO}-YRQFNRRTHEVWNLDCG (thioether N-16; not fully specified, also called D4-3 peptide; D4-3 Monomer) [D4-3] ?
A. 8.5
